Data origin, for the record: the supplement of paper PMC8671470

Documented cell viability across a set of molecules
- System: myeloid leukemia patient primary cells Pat.9
- protocol notes: cell viability (% survival relative to DMSO control); higher = less cytotoxic
- run conditions: 1000 nM; 72 h
Number only, in %; omit the unit.

Example cases with answers are listed next.
CCC(CC#N)OC(=O)N[C@@H](C)c1cccc(NC(=O)Nc2ccc(-c3cnco3)c(OC)c2)c1 (stereo in doubt) [AVN-944]; 15.9
Cc1nnc(-c2ccc(N3CCC(Oc4ccccc4C(F)(F)F)CC3)nn2)s1 [MF-438]; 69.3
O=C(CCl)N(CCCNC(=O)C(F)(F)F)c1ccc([N+](=O)[O-])cc1 [ML-175]; 7.21

The reported cell viability value, myeloid leukemia patient primary cells Pat.9, for CCn1c(=O)/c(=C2\Sc3ccccc3N2C)s/c1=C\c1cccc[n+]1CC.[Cl-] [MKT-077] reads 78.1

The reported cell viability value, myeloid leukemia patient primary cells Pat.9, for Nc1ccn([C@@H]2O[C@H](CO)[C@@H](O)C2(F)F)c(=O)n1 [Gemcitabine] reads 15.4

The reported cell viability value, myeloid leukemia patient primary cells Pat.9, for CCCCCCCCCCCCC/C=C/[C@@H](O)[C@H](CO)N(C)C [N,N-Dimethylsphingosine] reads 21.6

The reported cell viability value, myeloid leukemia patient primary cells Pat.9, for Oc1ncc(F)c(O)n1 [5-fluorouracil] reads 71.4

----------
- Test system: K-562
- protocol notes: cell viability (% survival relative to DMSO control, bortezomib = 0%); higher = less cytotoxic
- run conditions: 10000 nM; 72 h
Documented cell viability across a set of molecules
Number only, in %; omit the unit.

Example cases with answers are listed next.
CC(C)c1ccc2c(c1)c(SC(C)(C)C)c(CC(C)(C)C(=O)O)n2Cc1ccc(Cl)cc1; 106
OC[C@H]1OC(O)C[C@@H](O)[C@@H]1O (some centres not stated); 99.6
CNC(=C[N+](=O)[O-])NCCSCc1ccc(CN(C)C)o1; 103
N#Cc1ccc(C2CCCc3cncn32)cc1 (configuration not stated); 109
COc1ccc2c(c1)c(CC(=O)O)c(C)n2C(=O)c1ccc(Cl)cc1; 90.4
C[C@H]1O[C@H](O[C@H]2[C@H](O)[C@@H](O)[C@@H](O[C@H]3[C@H](O)[C@@H](O)C(O)O[C@@H]3CO)O[C@@H]2CO)[C@H](O)[C@@H](O)[C@@H]1N[C@H]1C=C(CO)[C@@H](O)[C@H](O)[C@H]1O (mixture of isomers); 98.8

# context switch: different molecule, same cell viability
Item: `Cc1nnc(-c2ccc(N3CCC(Oc4ccccc4C(F)(F)F)CC3)nn2)s1` | cell viability: 38.1

----------
Documented cell viability across a set of compounds
- Test system: HL-60
- protocol notes: cell viability (% survival relative to DMSO control); higher = less cytotoxic
- run conditions: 0.01 µM; 72 h; co-treatment: AZD3965 100 nM
Number only, in %; omit the unit.

Example cases with answers are listed next.
CC(C)(F)C[C@H](N[C@@H](c1ccc(-c2ccc(S(C)(=O)=O)cc2)cc1)C(F)(F)F)C(=O)NC1(C#N)CC1 [Odanacatib]; 95.1
Oc1ncc(F)c(O)n1 [5-fluorouracil]; 98.3
O=C(Oc1cccc(F)c1OC(=O)c1cccc(O)c1)c1cccc(O)c1 [WZB117]; 97.3
N#Cc1ccc(C2CCCc3cncn32)cc1 (stereo unspecified) [Fadrozole]; 98.6
COc1cc(C2Oc3cc(C4Oc5cc(O)cc(O)c5C(=O)C4O)ccc3OC2CO)ccc1O (stereo unspecified) [Silibinin]; 99.1
O=C1N[C@@H]2[C@@H](O)[C@@H](O)[C@H](O)[C@@H](CO)N2C1=O [Kifunensine]; 81.8
CCCCC/C=C\C/C=C\C/C=C\C/C=C\CCCC(=O)C(F)(F)F [Arachidonyl trifluoromethyl ketone]; 104
O=C(CCl)N(CCCNC(=O)C(F)(F)F)c1ccc([N+](=O)[O-])cc1 [ML175]; 100
O=C(c1c2ccccc2cc2ccccc12)N1CCC(N2CCC[C@@H](C(=O)N3CCOCC3)C2)CC1; 96.9
NCc1ccc(-c2cccnc2)s1 [(5-Pyrid-3-YLTHIEN-2-YL)METHYLAMINE]; 78

# context switch: different compound, same cell viability
The reported cell viability value, HL-60, for CNC(=C[N+](=O)[O-])NCCSCc1ccc(CN(C)C)o1 [Ranitidine] reads 102

----------
Documented IC50 (cell viability) across a set of compounds
- Tested on: KCL-22
- run conditions: 72 h
Number only, in nM; omit the unit.

Item: `O=C(Cc1cccc(OC(F)(F)F)c1)Nc1ccc(CCCCc2nnc(NC(=O)Cc3ccccn3)s2)nn1` | IC50 (cell viability): 822

Item: `O=C(CCl)N(CCCNC(=O)C(F)(F)F)c1ccc([N+](=O)[O-])cc1` | IC50 (cell viability): 2070

Item: `CCCCCCCCCCCCC/C=C/[C@@H](O)[C@H](CO)N(C)C` | IC50 (cell viability): 2780

----------
- Tested on: NOMO-1
- protocol notes: cell viability (% survival relative to DMSO control, bortezomib = 0%); higher = less cytotoxic
- run conditions: 10 nM; 72 h
Documented cell viability across a set of compounds
Number only, in %; omit the unit.

O=C1N[C@@H]2[C@@H](O)[C@@H](O)[C@H](O)[C@@H](CO)N2C1=O; 102
O=C(Oc1cccc(F)c1OC(=O)c1cccc(O)c1)c1cccc(O)c1; 94.3
CCCCCCCCCCCCC/C=C/[C@@H](O)[C@H](CO)N(C)C; 101

Item: `CN(C)C(=N)NC(=N)N` | cell viability: 93.6

Item: `CN(C)CCNC(=O)c1cccn2c(=O)c3cc4ccccc4cc3nc12` | cell viability: 101

Item: `Nc1nc(O)c2c(CCc3ccc(C(=O)N[C@@H](CCC(=O)O)C(=O)O)cc3)c[nH]c2n1` | cell viability: 94.8

Item: Cn1c2cc(S(C)=O)sc2c2cnn(Cc3cccc(N)c3)c(=O)c21 (centres undefined) | cell viability: 92.6

Item: `O=C(CCl)N(CCCNC(=O)C(F)(F)F)c1ccc([N+](=O)[O-])cc1` | cell viability: 97.8

Item: NS(=O)(=O)c1ccc(NC(=O)Cc2ccccc2)cc1 [4-(2-Phenylacetamido)Benzenesulfonamide] | cell viability: 102

Item: `CCCC(CCC)C(=O)O` | cell viability: 93.6

Item: `N[C@@H](CCC(=O)N[C@@H](CS)C(=O)NCC(=O)O)C(=O)O` | cell viability: 105

Item: CCC(CC#N)OC(=O)N[C@@H](C)c1cccc(NC(=O)Nc2ccc(-c3cnco3)c(OC)c2)c1 (stereo in doubt) | cell viability: 101

Item: `NCc1ccc(-c2cccnc2)s1` | cell viability: 105

Item: `Cn1cc(C[C@@H](N)C(=O)O)c2ccccc21` | cell viability: 96.2

Item: `Nc1ccn([C@@H]2O[C@H](CO)[C@@H](O)C2(F)F)c(=O)n1` | cell viability: 24.5

Item: `c1ccc2c(c1)SCc1c-2[nH]c2ccccc12` | cell viability: 107

Item: OC[C@H]1OC(O)C[C@@H](O)[C@@H]1O (some centres undefined) | cell viability: 100

Item: `Cc1nnc(-c2ccc(N3CCC(Oc4ccccc4C(F)(F)F)CC3)nn2)s1` | cell viability: 99.2

Item: `COc1cc(/C=C/c2ccc(OC)cc2OC)cc(OC)c1` | cell viability: 106

----------
- Test system: myeloid leukemia patient primary cells Pat.15
- protocol notes: cell viability (% survival relative to DMSO control); higher = less cytotoxic
- run conditions: 10000 nM; 72 h
Where a name gives a salt, the structure may show the parent alone.
quantity name: cell viability (%)
Number only, in %; omit the unit.

Example cases with answers are listed next.
Nc1nc(O)c2c(CCc3ccc(C(=O)N[C@@H](CCC(=O)O)C(=O)O)cc3)c[nH]c2n1; 94.2
CCCCCCCCCCCCC/C=C/[C@@H](O)[C@H](CO)N(C)C; 10.4

Item: `Clc1cc(Cl)c(OCC#CI)cc1Cl` | cell viability: 6.74

Item: `O=C(Oc1cccc(F)c1OC(=O)c1cccc(O)c1)c1cccc(O)c1` | cell viability: 61.3

Item: `CN(C)CCNC(=O)c1cccn2c(=O)c3cc4ccccc4cc3nc12` | cell viability: 0.56

Item: CC(C)(Cc1ccccc1)NCC(O)c1ccc(O)c(NS(C)(=O)=O)c1 (centres undefined) [Zinterol hydrochloride] | cell viability: 68.9

Item: `O=C(c1c2ccccc2cc2ccccc12)N1CCC(N2CCC[C@@H](C(=O)N3CCOCC3)C2)CC1` | cell viability: 88.6

Item: `Cc1nnc(-c2ccc(N3CCC(Oc4ccccc4C(F)(F)F)CC3)nn2)s1` | cell viability: 69.8

Item: `CC(C)c1onc(-c2c(Cl)cccc2Cl)c1COc1ccc(/C=C/c2cccc(C(=O)O)c2)c(Cl)c1` | cell viability: 89.7

----------
- Tested on: BV-173
- protocol notes: cell viability (% survival relative to DMSO control, bortezomib = 0%); higher = less cytotoxic
- run conditions: 10000 nM; 72 h
quantity name: cell viability (%)
Number only, in %; omit the unit.

C[C@H]1O[C@H](O[C@H]2[C@H](O)[C@@H](O)[C@@H](O[C@H]3[C@H](O)[C@@H](O)C(O)O[C@@H]3CO)O[C@@H]2CO)[C@H](O)[C@@H](O)[C@@H]1N[C@H]1C=C(CO)[C@@H](O)[C@H](O)[C@H]1O (mixture of isomers); 83.4
CN(C)CCNC(=O)c1cccn2c(=O)c3cc4ccccc4cc3nc12; -0.415
O=C(CCl)N(CCCNC(=O)C(F)(F)F)c1ccc([N+](=O)[O-])cc1; -0.742

Item: `O=C1N[C@@H]2[C@@H](O)[C@@H](O)[C@H](O)[C@@H](CO)N2C1=O` | cell viability: 90.5

Item: `COc1ccc2c(c1)c(CC(=O)O)c(C)n2C(=O)c1ccc(Cl)cc1` | cell viability: 81.8

Item: `Cc1nnc(-c2ccc(N3CCC(Oc4ccccc4C(F)(F)F)CC3)nn2)s1` | cell viability: 99.4
